# Tested on: Rattus norvegicus
# ASSAY_OVERVIEW: Antihypertensive activity in spontaneously hypertensive rats (SHR) measured by percentage fall in arterial pressure (AP) at 25 mg/kg administered intraperitoneally at 1 h
# Type: functional, Artery
# TEST_CONTEXT: route intraperitoneal
QUANTITY_NAME: Decrease in AP (%)
The figure you give is taken to be in %; do not add the unit.

Illustrative cases are given below, each with its answer.
| SMILES_STRUCTURE | Decrease in AP / % |
| --- | --- |
| Cl.NNc1[nH]ncc2c3cc(OCc4ccccc4)ccc3nc1-2 | 18 |
| CCOc1ccc2[nH]c3c(S)nncc3c2c1 | 10 |
| COc1ccc2c(c1)cc1c(NN)nncn12.Cl | 9 |

## Input Query: Decrease in AP; subject: COc1ccc2[nH]c3c(NN)nncc3c2c1.Cl
## Output 58

## Input Query: Decrease in AP; subject: COc1ccc2[nH]c3c(O)nncc3c2c1
## Output 10

## Input Query: Decrease in AP; subject: NNc1[nH]ncc2c3cc(OCc4ccccc4)ccc3nc1-2.O=S(=O)(O)O
## Output 21

----------
# Tested on: Rattus norvegicus
# ASSAY_OVERVIEW: Antihypertensive activity in spontaneously hypertensive rats (SHR) measured by percentage fall in arterial pressure (AP) at 25 mg/kg administered intraperitoneally at 24 h
# Type: functional, Artery
# TEST_CONTEXT: route intraperitoneal
// Decrease in AP lookup, one value per entry
The figure you give is taken to be in %; do not add the unit.

| SMILES_STRUCTURE | UNITS | Decrease in AP |
| --- | --- | --- |
| COc1ccc2[nH]c3c(NN)nncc3c2c1 | % | 5 |

## Input Query: Decrease in AP; subject: NNc1[nH]ncc2c3cc(OCc4ccccc4)ccc3nc1-2
## Output 7

## Input Query: Decrease in AP; subject: Cl.NNc1[nH]ncc2c3cc(OCc4ccccc4)ccc3nc1-2
## Output 9

## Input Query: Decrease in AP; subject: COc1ccc2[nH]c3c(NN=C(C)C)nncc3c2c1
## Output 7

## Input Query: Decrease in AP; subject: CCOc1ccc2[nH]c3c(NN)nncc3c2c1
## Output 5

## Input Query: Decrease in AP; subject: CCOc1ccc2[nH]c3c(NN)nncc3c2c1.Cl
## Output 34

----------
// Decrease in AP lookup, one value per entry
# Tested on: Rattus norvegicus
# ASSAY_OVERVIEW: Antihypertensive activity in spontaneously hypertensive rats (SHR) measured by percentage fall in arterial pressure (AP) at 25 mg/kg administered intraperitoneally at 24 h
# Type: functional, Artery
# TEST_CONTEXT: route intraperitoneal
Note: a bare number is incomplete; add the unit.

## Input Query: Decrease in AP; subject: COc1ccc2[nH]c3c(cnn4nnnc34)c2c1
## Output 6%

## Input Query: Decrease in AP; subject: COc1ccc2[nH]c3c(NN)nncc3c2c1.Cl
## Output 10%

## Input Query: Decrease in AP; subject: Br.Br.NNc1[nH]ncc2c3cc(O)ccc3nc1-2
## Output 28%

----------
# System: Rattus norvegicus
# ASSAY_OVERVIEW: Percent fall in systolic blood pressure, directly measured on carotid (iv on the jugular vein) of spontaneously hypertensive rats at 1 mg/kg after 30 minutes
# Format: functional, Artery
// Decrease in blood pressure lookup, one value per entry

| COMPOUND | DATA_VALUE |
| --- | --- |
| CCOc1ccc2[nH]c3c(NN)nncc3c2c1.Cl | 32% |
| COc1ccc2[nH]c3c(NN)nncc3c2c1.Cl | 40% |
| Cl.NNc1nncc2ccccc12 [HYDRALAZINE HYDROCHLORIDE] | 48% |

# ---- query compound ----
## Input Observed Decrease in blood pressure on Rattus norvegicus for NNc1[nH]ncc2c3cc(O)ccc3nc1-2 , please.
## Output 56%

----------
# Tested on: Rattus norvegicus
# ASSAY_OVERVIEW: Antihypertensive activity in spontaneously hypertensive rats (SHR) measured by percentage fall in arterial pressure (AP) at 25 mg/kg administered intraperitoneally at 1 h
# Format: functional, Artery
# TEST_CONTEXT: route intraperitoneal
// Decrease in AP lookup, one value per entry
The figure you give is taken to be in %; do not add the unit.

Illustrative cases are given below, each with its answer.
| SMILES_STRUCTURE | QUANTITY_NAME | DATA_VALUE |
| --- | --- | --- |
| CCOc1ccc2[nH]c3c(NN)nncc3c2c1.Cl | Decrease in AP | 57 |
| Br.Br.NNc1[nH]ncc2c3cc(O)ccc3nc1-2 | Decrease in AP | 70 |
| CCOc1ccc2[nH]c3c(NN)nncc3c2c1 | Decrease in AP | 29 |

# ---- query compound ----
## Input Query: Decrease in AP; subject: COc1ccc2[nH]c3c(NN)nncc3c2c1
## Output 17

----------
# Test system: Rattus norvegicus
# ASSAY_OVERVIEW: Antihypertensive activity in spontaneously hypertensive rats (SHR) measured by percentage fall in cardiac rhythm (CR) at 1 mg/kg administered intraperitoneally at 5 h
# Type: functional, Heart
# TEST_CONTEXT: route intraperitoneal
// Decrease in CR lookup, one value per entry
The figure you give is taken to be in %; do not add the unit.

Illustrative cases are given below, each with its answer.
| MOLECULE | DATA_VALUE |
| --- | --- |
| Br.Br.NNc1[nH]ncc2c3cc(O)ccc3nc1-2 | 19 |
| NNc1[nH]ncc2c3cc(OCc4ccccc4)ccc3nc1-2 | 6 |
| Cl.NNc1nncc2ccccc12 [HYDRALAZINE HYDROCHLORIDE] | -2 |

# ---- query molecule ----
## Input Query: Decrease in CR; subject: CCOc1ccc2[nH]c3c(NN)nncc3c2c1.Cl
## Output -10
